Entry source: patent US8846704B2

Listed here are molecules together with their documented GI50.
measured target: BaF3 TELJAK2 cells (BafT_J2) (Homo sapiens)
Construct: fused on or other part: TEL (ETV6) N-terminal part, coding nucleotides 1-487, serves as the oligomerising partner; It is fused through a Sal I site to the JAK2 kinase domain and expressed from pTRE2 in BaF3 cells bearing pTET-off; P41212 (Transcription factor ETV6)
Sequence (O60674 whole entry, change not shown, the tested form may be a part): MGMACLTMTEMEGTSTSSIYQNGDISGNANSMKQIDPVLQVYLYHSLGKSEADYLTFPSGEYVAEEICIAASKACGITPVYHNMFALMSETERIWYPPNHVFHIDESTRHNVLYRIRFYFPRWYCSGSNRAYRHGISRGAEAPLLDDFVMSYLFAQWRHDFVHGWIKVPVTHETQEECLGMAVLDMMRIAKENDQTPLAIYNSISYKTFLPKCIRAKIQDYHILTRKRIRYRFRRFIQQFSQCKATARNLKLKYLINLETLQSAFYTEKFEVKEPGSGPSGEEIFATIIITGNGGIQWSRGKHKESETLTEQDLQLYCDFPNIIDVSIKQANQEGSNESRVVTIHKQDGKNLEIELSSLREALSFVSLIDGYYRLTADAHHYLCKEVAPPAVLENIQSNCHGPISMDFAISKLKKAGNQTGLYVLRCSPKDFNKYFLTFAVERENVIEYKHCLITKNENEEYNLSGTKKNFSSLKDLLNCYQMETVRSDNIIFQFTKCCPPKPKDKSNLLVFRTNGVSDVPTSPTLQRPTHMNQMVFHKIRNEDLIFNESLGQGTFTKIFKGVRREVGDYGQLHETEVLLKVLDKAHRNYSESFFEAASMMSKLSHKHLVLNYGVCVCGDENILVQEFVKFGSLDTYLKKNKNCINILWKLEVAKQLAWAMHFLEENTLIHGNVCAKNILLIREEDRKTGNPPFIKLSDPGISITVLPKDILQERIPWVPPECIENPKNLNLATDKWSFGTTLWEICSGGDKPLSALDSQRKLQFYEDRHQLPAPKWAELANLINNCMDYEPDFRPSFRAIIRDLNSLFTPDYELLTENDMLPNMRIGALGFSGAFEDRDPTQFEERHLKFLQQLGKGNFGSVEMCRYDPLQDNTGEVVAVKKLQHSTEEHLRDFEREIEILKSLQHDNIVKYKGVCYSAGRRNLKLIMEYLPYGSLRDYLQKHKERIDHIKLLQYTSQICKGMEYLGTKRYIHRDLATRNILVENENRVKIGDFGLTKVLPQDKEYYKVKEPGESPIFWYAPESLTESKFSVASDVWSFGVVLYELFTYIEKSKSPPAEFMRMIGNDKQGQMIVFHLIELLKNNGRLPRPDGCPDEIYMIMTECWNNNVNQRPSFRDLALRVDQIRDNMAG
assay: Cellular screening, BaF3 TEL:JAK2 cells, Alamar Blue
Assay type: cell-based
reported conditions: 40 hr, read-out: BafT_J2 IC50_nM
Procedure: For screening purposes, compounds were diluted in 96 well plates at a concentration of 20 μM. Plates were warmed at 37° C. for 30 minutes before the assay was performed. […] Compounds to be tested were added (10 μL, 10× final concentration) to a flat bottomed 96-well plate. […] The plates were then read at 544 nm.

Here are 2 molecules together with their reported answers.
Cc1cnc(Nc2ccc(N3CCOCC3)cc2)nc1Sc1ccc(N)cc1 | < 5 µM
C=CC(=O)Nc1ccc(Sc2nc(Nc3ccc(N4CCOCC4)cc3)ncc2Br)cc1 | > 20 µM

Recorded GI50 (molecule `Cc1cc(Sc2nc(Nc3ccc(N4CCOCC4)cc3)ncc2C)ccc1N` ): < 20 µM

Recorded GI50 (molecule `CC#CC(=O)Nc1ccc(Sc2ccnc(Nc3ccc(N4CCOCC4)cc3)n2)cc1` ): > 20 µM

Recorded GI50 (molecule `C=CC(=O)Nc1ccc(Sc2ccnc(Nc3ccc(O)cc3)n2)cc1` ): < 20 µM

###

measured target: BaF3 TELJAK2 cells (BafT_J2) (Homo sapiens)
Construct: fused on or other part: TEL (ETV6) N-terminal part, coding nucleotides 1-487, serves as the oligomerising partner; It is fused through a Sal I site to the JAK2 kinase domain and expressed from pTRE2 in BaF3 cells bearing pTET-off; P41212 (Transcription factor ETV6)
assay: Cellular screening, BaF3 TEL:JAK2 cells, Alamar Blue
Type: cell-based
reported conditions: 40 hr, read-out: BafT_J2 IC50_nM
Listed here are molecules together with their documented GI50.

Cc1cnc(Nc2ccc(N3CCOCC3)cc2)nc1Sc1ccc(CO)cc1 | < 5 µM
N#Cc1ncn(Cc2ccc(Sc3ccnc(Nc4ccc(N5CCOCC5)cc4)n3)cc2)c1C#N | < 5 µM
Cc1cnc(Nc2cccc(N3CCN(C)CC3)c2)nc1Sc1ccc(N)cc1 | < 1 µM
NCc1cccc(Sc2ccnc(Nc3ccc(N4CCOCC4)cc3)n2)c1 | < 20 µM

Then there is this molecule:
Recorded GI50 (molecule `C=CC(=O)Nc1ccc(Sc2nc(Nc3ccc(CNS(C)(=O)=O)cc3)ncc2C)cc1` ): > 20 µM

###

Tested on: BaF3 wild-type cells
assay: Cellular screening, BaF3 wild-type cells, Alamar Blue
Assay type: cell-based
reported conditions: Mus musculus, 40 hr, read-out: BAF3wt IC50_nM
Listed here are compounds together with their documented IC50.

Here are 8 compounds together with their reported answers.
Cc1cnc(Nc2ccc(O)cc2)nc1Sc1ccc(NC(=O)CCl)cc1 [Compound 193] | < 5 µM
C=CC(=O)Nc1ccc(Sc2ccnc(Nc3ccc(N4CCOCC4)cc3)n2)c(Cl)c1C [Compound 161] | > 20 µM
C=CC(=O)Nc1cccc(Nc2nccc(Sc3ccc(OC)cc3)n2)c1 [Compound 42] | < 20 µM
C=CC(=O)Nc1ccc(Sc2nc(Nc3ccc(N4CCOCC4)cc3)ncc2C)c(Cl)c1 [Compound 252] | > 20 µM
Cc1cnc(Nc2ccc(N3CCOCC3)cc2)nc1Sc1ccc(C(C#N)N2CCOCC2)cc1 (stereo not shown) [Compound 223] | < 5 µM
C=CC(=O)Nc1ccc(Sc2nc(Nc3ccc(NS(C)(=O)=O)cc3)ncc2C)cc1 [Compound 285] | < 5 µM
C=CC(=O)Nc1ccc(Sc2ccnc(Nc3cccc(C(=O)OC)c3)n2)cc1 [Compound 356] | < 20 µM
C=C(CN1CCOCC1)C(=O)Nc1cccc(Sc2ccnc(Nc3ccc(N4CCOCC4)cc3)n2)c1 [Compound 328] | < 5 µM

Recorded IC50 for C=CC(=O)Nc1ccc(Sc2ccnc(Nc3ccc(N4CCOCC4)cc3)n2)cc1 [Compound 25] on BaF3 wild-type cells was > 20 µM

Recorded IC50 for Cc1cnc(Nc2ccc(N3CCOCC3)cc2)nc1Sc1ccc(NC(=O)COCC(=O)O)cc1 [Compound 188] on BaF3 wild-type cells was > 20 µM

Recorded IC50 for Cc1cnc(Nc2ccc(N3CCOCC3)cc2)nc1Sc1ccc(NC(=O)/C=C/C(=O)O)cc1 [Compound 387] on BaF3 wild-type cells was > 20 µM

Recorded IC50 for N#Cc1nnn(Cc2ccc(Sc3ccnc(Nc4ccc(N5CCOCC5)cc4)n3)cc2)n1 [Compound 156] on BaF3 wild-type cells was < 5 µM

Recorded IC50 for C=CC(=O)Nc1cc(C)c(Sc2nc(Nc3ccc(N4CCOCC4)cc3)ncc2C)c(C)c1 [Compound 164] on BaF3 wild-type cells was > 20 µM

Recorded IC50 for C=CC(=O)Nc1ccc(Sc2ccnc(Nc3ccc(OC)c(O)c3)n2)cc1 [Compound 97] on BaF3 wild-type cells was < 20 µM

Recorded IC50 for C=CC(=O)Nc1ccc(Nc2nccc(SC)n2)cc1 [Compound 13] on BaF3 wild-type cells was > 20 µM

Recorded IC50 for N#CCC(=O)Nc1ccc(Sc2ccnc(Nc3ccc(N4CCC(N5CCCC5)CC4)cc3)n2)cc1 [Compound 88] on BaF3 wild-type cells was < 5 µM

Recorded IC50 for N#Cc1c(N)ncn1Cc1cccc(Sc2ccnc(Nc3ccc(N4CCOCC4)cc3)n2)c1 [Compound 199] on BaF3 wild-type cells was < 20 µM

Recorded IC50 for C=CC(=O)Nc1ccc(Sc2nc(Nc3ccc(N4CCOCC4)cc3)ncc2Br)cc1 [Compound 306] on BaF3 wild-type cells was > 20 µM

Recorded IC50 for C=CC(=O)Nc1ccc(Sc2ccnc(Nc3cccc(S(=O)(=O)NCc4ccccc4)c3)n2)cc1 [Compound 366] on BaF3 wild-type cells was < 20 µM

Recorded IC50 for C=CC(=O)Nc1ccc(Sc2ccnc(Nc3cccc(S(N)(=O)=O)c3)n2)cc1 [Compound 364] on BaF3 wild-type cells was < 20 µM

Recorded IC50 for Cc1cnc(Nc2ccc(N3CCOCC3)cc2)nc1Sc1ccc(C(=O)N2CCCC2)cc1 [Compound 224] on BaF3 wild-type cells was < 20 µM

Recorded IC50 for COc1ccc(Nc2nccc(Sc3ccc(NC(=O)CC#N)cc3)n2)cc1OC [Compound 101] on BaF3 wild-type cells was < 1 µM

Recorded IC50 for C=CC(=O)Nc1ccc(Sc2nc(Nc3ccc(N4CCC(C(=O)OCC)CC4)cc3)ncc2C)cc1 [Compound 292] on BaF3 wild-type cells was > 20 µM

Recorded IC50 for Cc1cc(Sc2nc(Nc3ccc(N4CCOCC4)cc3)ncc2C)ccc1N [Compound 255] on BaF3 wild-type cells was < 20 µM

Recorded IC50 for COC(=O)COCC(=O)Nc1ccc(Sc2nc(Nc3ccc(N4CCOCC4)cc3)ncc2C)cc1 [Compound 189] on BaF3 wild-type cells was < 20 µM

Recorded IC50 for C=CC(=O)Nc1ccc(Sc2nc(Nc3ccc(OC)c(OC)c3)ncc2C)cc1 [Compound 241] on BaF3 wild-type cells was < 20 µM

Recorded IC50 for C=CC(=O)Nc1ccc(Sc2nc(Nc3ccc(N4CCC(CO)CC4)cc3)ncc2C)cc1 [Compound 286] on BaF3 wild-type cells was > 20 µM

Recorded IC50 for N#CCc1cn(Cc2ccc(Sc3ccnc(Nc4ccc(N5CCOCC5)cc4)n3)cc2)cn1 [Compound 90] on BaF3 wild-type cells was < 20 µM

Recorded IC50 for C=CC(=O)Nc1ccc(Sc2ccnc(Nc3ccc4c(c3)OCO4)n2)cc1 [Compound 393] on BaF3 wild-type cells was > 20 µM

Recorded IC50 for C=CC(=O)Nc1ccc(Sc2ccnc(Nc3ccc(S(=O)(=O)N4CCOCC4)c(OC)c3)n2)cc1 [Compound 373] on BaF3 wild-type cells was < 5 µM

Recorded IC50 for CSc1nc(Nc2ccc(N3CCOCC3)cc2)ncc1C [Compound 176] on BaF3 wild-type cells was < 5 µM

Recorded IC50 for C=CC(=O)Nc1cccc(Nc2nccc(Sc3ccccn3)n2)c1 [Compound 2] on BaF3 wild-type cells was < 5 µM

Recorded IC50 for CCOC(=O)c1nccn1Cc1ccc(Sc2ccnc(Nc3ccc(N4CCOCC4)cc3)n2)cc1 [Compound 148] on BaF3 wild-type cells was < 20 µM

Recorded IC50 for C=CC(=O)Nc1ccc(Sc2nc(Nc3ccc4c(c3)OCO4)ncc2C)cc1 [Compound 284] on BaF3 wild-type cells was < 20 µM

###

Heads up, these compounds all have pIC50 values measured for human JAK2 (Homo sapiens).
pIC50: −log10 of the molar value.

Here are 3 compounds together with their reported answers.
C=CC(=O)Nc1ccc(Sc2nc(Nc3ccccc3O)ncc2C)cc1 | < 6.00
Cc1cnc(Nc2ccc(N3CCOCC3)cc2)nc1Sc1ccc(N2C(=O)C=CC2=O)cc1 | > 6.30
C=CC(=O)Nc1ccc(Sc2nc(Nc3cccc(OCCCO)c3)ncc2C)cc1 | < 6.00

Then there is this compound:
Recorded pIC50 for `Cc1cnc(Nc2ccc(N3CCOCC3)cc2)nc1Sc1ccc(NC(=O)/C=C/C(=O)O)cc1` on human JAK2 (Homo sapiens) was > 6.00
